System: LNCaP
Experiment: Cytotoxicity against human LNCAP cells by sulforhodamine B assay
Assay type: functional
Settings: read-out: ED50 (the source's name)
pEC50: −log10 of the molar value.
Assay endpoint: pEC50

| Sample smiles | Test target | Meas value |
| --- | --- | --- |
| COc1cc2c(c(OC)c1O)-c1ccc(SC)c(=O)cc1[C@@H](NC(C)=O)CC2 | LNCaP | 7.22 |
| CC[C@@]1(O)C(=O)OCn2c1cc1c(c2=O)Cc2c-1nc1ccccc1c2/C=N/CCC(=O)O[C@@H](C(=O)O[C@H]1C[C@@]2(O)[C@@H](OC(=O)c3ccccc3)[C@@H]3[C@]4(OC(C)=O)CO[C@@H]4C[C@H](O)[C@@]3(C)C(=O)[C@H](OC(C)=O)C(=C1C)C2(C)C)[C@@H](NC(=O)c1ccccc1)c1ccccc1 | LNCaP | 8.52 |
| COc1cc2c(c(OC)c1OC(=O)CCC(=O)O[C@@H](C(=O)O[C@H]1C[C@@]3(O)[C@@H](OC(=O)c4ccccc4)[C@@H]4[C@]5(OC(C)=O)CO[C@@H]5C[C@H](O)[C@@]4(C)C(=O)[C@H](OC(C)=O)C(=C1C)C3(C)C)[C@@H](NC(=O)c1ccccc1)c1ccccc1)-c1ccc(SC)c(=O)cc1[C@@H](NC(C)=O)CC2 | LNCaP | 7.71 |
| COc1cc([C@@H]2c3cc4c(cc3[C@@H](Nc3ccc(C(=O)NCCC(=O)O[C@H]5C[C@H]6OC[C@@]6(OC(C)=O)[C@H]6[C@H](OC(=O)c7ccccc7)[C@]7(O)C[C@H](OC(=O)[C@H](O)[C@@H](NC(=O)c8ccccc8)c8ccccc8)C(C)=C([C@@H](OC(C)=O)C(=O)[C@]56C)C7(C)C)cc3)[C@H]3COC(=O)[C@H]23)OCO4)cc(OC)c1O | LNCaP | 7.66 |
